System: Acetylcholine-Bromide Induced Abdominal Constriction
Assay: Mouse Acetylcholine Bromide-Induced Abdominal Constriction Assay
Format: in vivo
Details: Mus musculus, 0.5 h; po; 5.5 mg/kg i.p. acetylcholine bromide 30 minutes after drug; read-out: ED50 (dose which would produce 50% analgesia)
So I've got a bunch of compounds here, and I need their log10(ED50) values.
Form field - Quantity: ED50; Unit: mg/kg; Scale: log10

Some solved entries appear below for comparison.
Would you kindly share the measured log10(ED50) for O[C@@]1(c2cccc(C(F)(F)F)c2)CCC[C@H]2CNC[C@H]21 (relative stereo) ?
0.62

Cool, now CN1C[C@@H]2CCC[C@@](O)(c3cccs3)[C@@H]2C1 (relative stereo)
0.86

Entry to check: CN1C[C@@H]2CCC[C@@](O)(c3ccc(Cl)cc3Cl)[C@@H]2C1 (relative stereo)
0.13

Next compound: CN1C[C@@H]2CCC[C@@](O)(c3cccnc3)[C@@H]2C1 (relative stereo)
1.48

Hi there! I need log10(ED50) for each item below, if you can.
1. CN1C[C@@H]2CCC[C@@](O)(c3ccc(F)cc3)[C@@H]2C1 (relative stereo)
2. CN1C[C@@H]2CCC[C@@](O)(c3ccccc3)[C@@H]2C1 (relative stereo)
3. O[C@@]1(c2ccc(C(F)(F)F)cc2)CCC[C@H]2CN(Cc3ccccc3)C[C@H]21 (relative stereo)
4. CN1C[C@@H]2CCC[C@@](O)(c3cccc(F)c3)[C@@H]2C1 (relative stereo)
5. CN1C[C@@H]2CCC[C@@](O)(c3ccccn3)[C@@H]2C1 (relative stereo)

[-0.12, 0.59, 1.03, 0.73, 1.19]

Consider the following items and state reported log10(ED50) for each.
1. CN1C[C@@H]2CCC[C@@](O)(c3cccc4ccccc34)[C@@H]2C1 (relative stereo)
2. CN1C[C@@H]2CCC[C@@](O)(c3cccc(C(F)(F)F)c3)[C@@H]2C1 (relative stereo)

1. 1.22
2. 0.32
